Literature-derived pKi for Thymidylate synthase (Lactobacillus casei, UniProt P00469) follows.
pKi: −log10 of the molar value.
quantity: pKi

P: O=C(Oc1ccc2c3c(cccc13)C(=O)O2)c1ccc([N+](=O)[O-])cc1
Q: O=c1[nH]c(=O)n([C@H]2C[C@H](O)[C@@H](COP(=O)(O)O)O2)cc1C#CCCO
R: COc1ccc(Nc2nc3cc([N+](=O)[O-])cc([N+](=O)[O-])c3nc2-c2ccccc2)cc1
S: O=c1[nH]c(=O)n([C@H]2C[C@H](O)[C@@H](COP(=O)(O)O)O2)cc1C#CCF
T: Cc1cccc2c1C(=O)N(c1cccc(C(=O)O)c1)C2=O
Falling order of pKi, please. Sort and list the labels as requested.
S, P, Q, R, T
(S: 7.83, P: 5.92, Q: 5.72, R: 5.10, T: 4.16)

###

Biological target: Thymidylate synthase (Lactobacillus casei, UniProt P00469)
Sequence (P00469 whole entry): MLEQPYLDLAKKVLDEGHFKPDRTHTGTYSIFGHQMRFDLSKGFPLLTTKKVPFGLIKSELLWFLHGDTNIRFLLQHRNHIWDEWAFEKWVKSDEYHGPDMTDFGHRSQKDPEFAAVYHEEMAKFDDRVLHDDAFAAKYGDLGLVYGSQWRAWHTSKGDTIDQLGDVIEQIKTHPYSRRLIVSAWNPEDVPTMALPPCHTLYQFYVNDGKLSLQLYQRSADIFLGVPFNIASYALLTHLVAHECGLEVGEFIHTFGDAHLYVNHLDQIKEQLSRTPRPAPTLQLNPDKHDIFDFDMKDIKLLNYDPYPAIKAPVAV
pKi: −log10 of the molar value.
Here's a roundup of pKi values tested on Thymidylate synthase (Lactobacillus casei, UniProt P00469), taken from various published works.
quantity: pKi

Worked examples follow.
>>> measured_result("O=C1OC(c2cc(Cl)c(O)c(Cl)c2)(c2cc(Cl)c(O)c(Cl)c2)c2cccc3cccc1c23")
5.70
>>> measured_result("Cc1cccc2c1C(=O)N(c1ccc(C(=O)O)c(O)c1)C2=O")
4.85
>>> measured_result("CCOC(=O)Oc1ccc2c3c(cccc13)C(=O)O2")
5.00
>>> measured_result("CN1C(=O)c2cccc(CNc3ccc(C(=O)c4ccccc4)cc3)c2C1=O")
4.85
>>> measured_result("O=C(Oc1ccc2c3c(cccc13)C(=O)O2)c1ccco1")
4.89
>>> measured_result("COCCCNCc1cccc2c1C(=O)N(C)C2=O")
4.39
>>> measured_result("Nc1ccc(-c2cn([C@H]3C[C@H](O)[C@@H](COP(=O)(O)O)O3)c(=O)[nH]c2=O)cc1")
5.95
>>> measured_result("CCCCC#Cc1cn([C@H]2C[C@H](O)[C@@H](COP(=O)(O)O)O2)c(=O)[nH]c1=O")
5.59

1: O=C1OC(c2ccc(O)c(I)c2)(c2ccc(O)c(I)c2)c2cccc3cccc1c23
2: CN(C)c1cccc2c(S(=O)(=O)Oc3ccc(C[C@H](NS(=O)(=O)c4cccc5cc([N+](=O)[O-])ccc45)C(=O)O)cc3)cccc12
So which one has the bigger pKi here, 1 or 2 ? Return value: the label identifying the chosen record.
2
(2: 6.52, 1: 4.51)

###

pKi: −log10 of the molar value.
Let's look at some pKi data for Thymidylate synthase (Lactobacillus casei) that I collected from the literature.
quantity: pKi

>>> measured_result("O=C1Oc2ccc(OC(=O)C3CCCCC3)c3cccc1c23")
4.31
>>> measured_result("O=C1OC(c2ccc(O)c(Br)c2)(c2ccc(O)c(Br)c2)c2cccc3cccc1c23")
5.17
>>> measured_result("CN1C(=O)c2cccc(CNc3ccc(C#N)cc3)c2C1=O")
4.29
>>> measured_result("O=c1[nH]c(=O)n([C@H]2C[C@H](O)[C@@H](COP(=O)(O)O)O2)cc1-c1ccccc1")
6.02
>>> measured_result("O=c1[nH]c(=O)n([C@H]2C[C@H](O)[C@@H](COP(=O)(O)O)O2)cc1-c1ccc([N+](=O)[O-])cc1")
5.19
>>> measured_result("CN(C)c1cccc2c(S(=O)(=O)N[C@@H](Cc3ccc(OS(=O)(=O)c4cccc5c(N(C)C)cccc45)cc3)C(=O)O)cccc12")
5.85

A: O=c1[nH]c(=O)n([C@H]2C[C@H](O)[C@@H](COP(=O)(O)O)O2)cc1-c1ccc(O)cc1
B: CN1C(=O)c2cccc(CNc3cccc(S(N)(=O)=O)c3)c2C1=O
C: CN(C)c1cccc2c(S(=O)(=O)Oc3ccc(C[C@H](NS(=O)(=O)c4ccc(NC(=O)OCc5ccccc5)c5ccccc45)C(=O)O)cc3)cccc12
D: Cc1cccc2c1C(=O)N(c1nccs1)C2=O
Sort ascending by pKi. I'd appreciate it if you listed the labels in the requested order.
B, A, D, C

P: NC(=O)c1ccc(-c2cn([C@H]3C[C@H](O)[C@@H](COP(=O)(O)O)O3)c(=O)[nH]c2=O)cc1
Q: Cc1cccc2c1C(=O)N(c1cccc3[nH]ccc13)C2=O
Which item exceeds the other in pKi, P or Q ? Reply with the label of the item you choose.
P

###

Protein target, amino acids: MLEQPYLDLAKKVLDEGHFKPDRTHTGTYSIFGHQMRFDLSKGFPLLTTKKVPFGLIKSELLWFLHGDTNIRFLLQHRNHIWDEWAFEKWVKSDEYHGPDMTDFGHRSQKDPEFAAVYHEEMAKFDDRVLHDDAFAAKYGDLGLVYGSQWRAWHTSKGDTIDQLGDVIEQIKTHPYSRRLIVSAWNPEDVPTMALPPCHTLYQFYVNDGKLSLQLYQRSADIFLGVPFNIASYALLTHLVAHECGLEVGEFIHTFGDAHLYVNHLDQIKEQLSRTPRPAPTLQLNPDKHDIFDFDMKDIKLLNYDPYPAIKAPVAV
Ki for the protein given by its sequence - collated from the literature.
quantity: Ki (µM)

Example entries and their recorded answers appear below.
>>> measured_result("COc1cc(Nc2nc3cc([N+](=O)[O-])cc([N+](=O)[O-])c3nc2-c2ccccc2)cc(OC)c1")
6
>>> measured_result("C/C=C/C(=O)Oc1ccc2c3c(cccc13)C(=O)O2")
6
>>> measured_result("COC(=O)c1ccc(-c2cn([C@H]3C[C@H](O)[C@@H](COP(=O)(O)O)O3)c(=O)[nH]c2=O)cc1")
3.99
>>> measured_result("COc1ccc(Nc2nc3cc([N+](=O)[O-])cc([N+](=O)[O-])c3nc2-c2ccccc2)cc1OC")
24
>>> measured_result("CN1C(=O)c2cccc(CNc3ccc(C(=O)O)cn3)c2C1=O")
27

A: Cc1cc(N2C(=O)c3cccc(C)c3C2=O)ccc1N1C(=O)c2ccc(Cl)cc2C1=O
B: C=CC(=O)Oc1ccc2c3c(cccc13)C(=O)O2
Which of the two gives a bigger number for Ki: A or B ? Kindly state the label of the option you pick.
A
(A: 36 µM, B: 10 µM)
